tested on: RXF 393 renal; test: NCI-60 one-dose screen, 48 h (100 = growth as untreated, 0 = no growth, -100 = all killed); settings: 10 µM unless noted
The panel holds about 83,000 compounds, 20% with a hit somewhere; the sample as a whole holds those more often.
Label key: satisfied means growth under 80%; not satisfied means growth of 80% or more.

Is growth of `COC(=O)[C@H](Cc1ccccc1)NNC(=O)c1csc([C@@H](C[C@H](C(C)C)N(C)C(=O)[C@@H](NC(=O)[C@H]2CCCCN2C)C2CC2)OC(C)=O)n1` strictly below 80%? satisfied

Is growth of `COC[C@@H]1C[C@@]2(C)[C@@H](CC[C@@H]3[C@@H]2CC[C@@]2(C)[C@H]3CC[C@]2(C)O)CC1=O` strictly below 80%? not satisfied

Is growth of O=C(CC1(O)C(=O)Nc2ccccc21)c1ccc(C(=O)NCC2CCC3(CC2)OOC2(CCCCC2)OO3)cc1 (stereo not drawn) strictly below 80%? not satisfied

Is growth of CCCC(C)C1(CC)C(=O)NC(=O)N(C)C1=O (stereo not drawn) strictly below 80%? not satisfied

Is growth of `N#C[Se]Cc1cc(-c2ccccc2)n(-c2ccc(S(N)(=O)=O)cc2)n1` strictly below 80%? satisfied

Is growth of `C/C(Cc1ccc(Cl)cc1)=C(\c1ccc(OCCN2CCOCC2)cc1)c1ccc(OC(=O)Cc2ccccc2)cc1` strictly below 80%? not satisfied

Is growth of `COC(=O)[C@@H](C)C[C@H](Cc1ccccc1)NC(=O)c1csc([C@@H](C[C@H](C(C)C)N(C)C(=O)C2(NC(=O)[C@H]3CCCCN3C)CC2)OC(C)=O)n1` strictly below 80%? satisfied
